Target: MUC1 5TR (five tandem repeat recombinant MUC1, unglycosylated) (Homo sapiens, UniProt P15941 P15941:161-260)
Sequence (P15941 141-240, one chain of several): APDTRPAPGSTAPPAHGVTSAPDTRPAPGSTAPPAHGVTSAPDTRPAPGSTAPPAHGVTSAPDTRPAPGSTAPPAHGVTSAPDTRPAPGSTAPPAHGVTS
Assay: SPR; 100 mM NaCl, 5 mM MgCl2, pH 7.4; printed ka and kd would give 0.69 nM
Details: tags: 6xHis; expressed in E. coli BL21; biotin-XX labelled for SPR; about 11.8 kDa
endpoint: pKd
Please express pKd as -log10 of the molar concentration.

// pKd value for TACTGCATGCACACCACTTCAACTA (ssDNA) [MUC1 5TR-4] : 7.16
